# Test system: OVCAR-3
# test.description: NCI tumour cell line growth inhibition, 48 h
Active and inactive are the calls of the source. No stated cut-off is given here; in the data, active = GI50 up to about 1.1 µM and inactive = higher.
Result category, one only: active, inactive

Problem: What outcome does the record of this test show for `COc1cc(OC(=O)c2ccccc2)cc2c1C(=O)C=CC2=O` ?
Solution: inactive

Problem: What outcome does the record of this test show for NC(Cc1ccccc1)C(=O)NC(Cc1ccccc1)NC(=O)C(Cc1c[nH]c2ccccc12)C(=O)O (stereo not given) ?
Solution: inactive

Problem: What outcome does the record of this test show for `CC(C)(C)SC1=CCC[C@@H](P(=O)(c2ccccc2)c2ccccc2)[C@@H]2CCC[C@@H]12` ?
Solution: inactive

Problem: What outcome does the record of this test show for `COC(=O)/C(C#N)=C(/NCCN)Nc1ccccc1` ?
Solution: inactive

Problem: What outcome does the record of this test show for `CN(C)c1ccc(-c2cc(O)c3cc4c(cc3n2)OCO4)cc1` ?
Solution: inactive

Problem: What outcome does the record of this test show for `CC(=O)Oc1ccccc1[C@H]1CC(=O)C[C@H](c2ccccc2OC(C)=O)C12C(=O)c1ccccc1C2=O` ?
Solution: inactive

Problem: What outcome does the record of this test show for `CN(C)CCn1c(=O)oc2cc(C(=O)CN3CCOCC3)ccc21` ?
Solution: inactive

Problem: What outcome does the record of this test show for Clc1ccc(C2ON=C(c3ccccc3)N2C23CC4CC(CC(C4)C2)C3)c(Cl)c1 (stereo not given) ?
Solution: inactive

Problem: What outcome does the record of this test show for `CCCNc1[nH]c(C(C)=O)c(N)c1C(=S)Nc1ccccc1` ?
Solution: inactive

Problem: What outcome does the record of this test show for `C[C@@H]1C[C@H](O)[C@]2(O)O[C@@H]3C[C@@]4(C=O)[C@@H](CC=C5[C@@H]4CC[C@]4(C)[C@@H](C6=CC(=O)OC6)CC[C@]54O)C[C@H]3O[C@@H]2O1` ?
Solution: active

Problem: What outcome does the record of this test show for CC(Nc1ncc2c(n1)-c1ccccc1OC2)C(=O)O (stereo not given) ?
Solution: inactive

Problem: What outcome does the record of this test show for `C=C(CC[C@@H](C)[C@H]1CC[C@H]2[C@@H]3C[C@@H](O)[C@H]4C[C@@H](O)CC[C@]4(CO)[C@H]3CC[C@]12C)C(C)C` ?
Solution: inactive

Problem: What outcome does the record of this test show for O=[N+]([O-])c1cccc(C2ON2C2CCCCC2)c1 (stereo not given) ?
Solution: inactive

Problem: What outcome does the record of this test show for `O=C1CSC(/C(=C/c2ccccc2)c2nc3ccccc3[nH]2)=N1` ?
Solution: inactive

Problem: What outcome does the record of this test show for `C=CCc1cc(-c2cc(CC=C)c(O)c(CNC)c2)cc(CNC)c1O` ?
Solution: inactive

Problem: What outcome does the record of this test show for `CC(=O)Nc1ccc2c(C)c3c(nc2n1)[nH]c1ccccc13` ?
Solution: inactive

Problem: What outcome does the record of this test show for `NC(=O)C(=O)n1ncc(Cl)c(Cl)c1=O` ?
Solution: inactive

Problem: What outcome does the record of this test show for `N#CC(C#N)=C1SCC(=O)CS1` ?
Solution: inactive

Problem: What outcome does the record of this test show for `CN(CC#N)C(=O)Cc1ccc([N+](=O)[O-])cc1` ?
Solution: inactive

Problem: What outcome does the record of this test show for `CN1c2ccccc2C(=O)Nc2cnc(Cl)nc21` ?
Solution: inactive
